target desc: Mannose-6-phosphate isomerase (Homo sapiens)
protocol: MPI inhibition at elevated mannose 6-phosphate – biochemical, fluorescence intensity, high mannose 6-phosphate, primary screen (AID 1220)
test settings: recombinant PMI enzyme, coupled fluorescence intensity; at 20 µM
In all, about 190,000 compounds went through this assay and about 1,300 (0.68%) were called active. No stated cut-off is given here; in the data, active means inhibition above about 50%; inactive means the rest. This excerpt belongs to a sample that is enriched for actives.
Allowed answers: active, inactive

Study these solved cases before continuing.
Cc1cc(N)ccc1N1CCCC1 :: inactive
Cc1cc(C(F)(F)F)nn1C(=O)c1cccnc1Cl :: inactive
COc1ccc(-c2cccc(C(=O)NCC(=O)O)c2)cc1 :: inactive
Cc1c(/C=N/Nc2ccc(F)cc2)c(O)n(C)c(=O)c1C#N :: inactive
COc1ccc(Cl)cc1-n1c(C)ccc1C :: inactive
O=C(COC(=O)c1cccnc1)Nc1ccc2c(c1)OCO2 :: inactive

Can you look up the reported call for CCOC(=O)C(Cc1c(F)cccc1Cl)c1ccno1 (stereo not given) for me? inactive

Can you look up the reported call for Cc1cc(Br)ccc1-n1[nH]c(C)c(C=Nc2cccc3nsnc23)c1=O for me? active

Can you look up the reported call for CC(C)CC(=O)O/N=C1\C(=O)N(Cc2ccc(Cl)cc2)c2ccc([N+](=O)[O-])cc21 for me? inactive

Can you look up the reported call for C=CCNC(=S)N1CCC(C(=O)c2ccc3c(c2)OCCO3)CC1 for me? inactive

Can you look up the reported call for Nc1cccnc1-n1nc(C(F)(F)F)cc1C(F)(F)F for me? inactive

Can you look up the reported call for COc1ccc(CCN2CC(C#N)=C3c4cc(OC)c(OC)cc4CCN3C2)cc1OC for me? inactive

Can you look up the reported call for Cc1cc(N)ccc1-n1c(C)ccc1C for me? active

Can you look up the reported call for COc1ccccc1C(=O)NNC(=O)c1ccccc1F for me? inactive

Can you look up the reported call for COc1ccccc1N=Cc1c(C)[nH]n(-c2ccc(C)cc2C)c1=O for me? inactive

Can you look up the reported call for C=CCSc1nc(-c2ccc3c(c2)OCO3)cc(C(F)(F)F)c1C#N for me? inactive

Can you look up the reported call for COc1ccc(N)cc1-n1cnnn1 for me? inactive

Can you look up the reported call for COc1ccc(N)cc1-n1c(C)ccc1C for me? active

Can you look up the reported call for CC(=O)N=Cc1c(C)c(C#N)c(=O)n(C)c1O for me? active

Can you look up the reported call for CCOc1ccccc1NC(=O)c1ccc2nccnc2c1 for me? inactive

Can you look up the reported call for Cc1ccc(-n2nnnc2SCC(=O)NNC(=O)c2ccc([N+](=O)[O-])cc2)cc1 for me? inactive

Can you look up the reported call for ONc1cccnc1-n1nc(C(F)(F)F)cc1C(F)(F)F for me? active

Can you look up the reported call for COC(=O)CS(=O)(=O)c1cc([N+](=O)[O-])ccc1NC(=O)OC for me? inactive

Can you look up the reported call for COc1ccc(CNn2c(-c3cccs3)nc3ccccc3c2=O)cc1OC for me? inactive

Can you look up the reported call for COc1cc2c(cc1OC)C1=C(C#N)CN(C3CCCCC3)CN1CC2 for me? inactive

Source listed as PubChem BioAssay AID1220.
